biological target: human alpha1 nicotinic acetylcholine (nACh) receptor (Homo sapiens); assay: Nicotinic acetylcholine receptor antagonism assay, IONFlux automated patch clamp (Example 203); settings: antagonism of ACh-stimulated human alpha1 nAChR current, patch clamp
Sequence (P02708 21-457): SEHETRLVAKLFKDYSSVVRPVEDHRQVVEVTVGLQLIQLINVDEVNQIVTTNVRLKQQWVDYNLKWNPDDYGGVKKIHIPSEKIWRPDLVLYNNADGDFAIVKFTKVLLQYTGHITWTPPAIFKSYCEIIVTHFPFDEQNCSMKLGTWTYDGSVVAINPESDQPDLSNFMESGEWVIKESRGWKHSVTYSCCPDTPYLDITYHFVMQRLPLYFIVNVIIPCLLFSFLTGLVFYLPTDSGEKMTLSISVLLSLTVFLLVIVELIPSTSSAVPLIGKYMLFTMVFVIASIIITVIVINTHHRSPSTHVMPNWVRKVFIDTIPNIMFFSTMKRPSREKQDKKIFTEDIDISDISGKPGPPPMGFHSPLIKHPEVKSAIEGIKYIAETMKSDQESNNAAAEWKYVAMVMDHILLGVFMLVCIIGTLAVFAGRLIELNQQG
Sequence (P11230 24-501 partner): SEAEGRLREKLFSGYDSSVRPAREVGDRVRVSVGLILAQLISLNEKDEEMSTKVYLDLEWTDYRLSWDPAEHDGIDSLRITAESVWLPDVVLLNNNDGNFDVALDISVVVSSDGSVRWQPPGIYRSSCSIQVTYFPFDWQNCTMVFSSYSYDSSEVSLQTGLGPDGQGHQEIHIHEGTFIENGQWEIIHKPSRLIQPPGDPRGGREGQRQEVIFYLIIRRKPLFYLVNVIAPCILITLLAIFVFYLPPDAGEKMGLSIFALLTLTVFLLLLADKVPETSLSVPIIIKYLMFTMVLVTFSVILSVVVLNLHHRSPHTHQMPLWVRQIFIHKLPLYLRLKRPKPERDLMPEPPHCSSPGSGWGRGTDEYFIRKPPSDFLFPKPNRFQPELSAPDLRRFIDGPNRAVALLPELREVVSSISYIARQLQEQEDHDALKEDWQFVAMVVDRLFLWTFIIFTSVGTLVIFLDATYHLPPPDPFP
Sequence (Q07001 22-517 partner): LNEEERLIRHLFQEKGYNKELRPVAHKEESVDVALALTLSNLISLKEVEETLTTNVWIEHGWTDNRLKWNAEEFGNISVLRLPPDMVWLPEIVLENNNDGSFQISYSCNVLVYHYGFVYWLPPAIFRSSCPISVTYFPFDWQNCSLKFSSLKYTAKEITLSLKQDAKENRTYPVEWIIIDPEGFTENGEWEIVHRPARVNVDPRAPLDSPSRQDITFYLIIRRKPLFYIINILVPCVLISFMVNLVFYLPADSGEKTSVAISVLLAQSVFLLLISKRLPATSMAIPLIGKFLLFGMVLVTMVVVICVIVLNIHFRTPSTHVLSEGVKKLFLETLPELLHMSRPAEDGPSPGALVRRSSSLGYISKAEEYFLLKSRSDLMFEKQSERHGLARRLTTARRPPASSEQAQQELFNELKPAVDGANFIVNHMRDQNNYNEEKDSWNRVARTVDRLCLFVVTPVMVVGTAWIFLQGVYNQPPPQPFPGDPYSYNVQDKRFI
READOUT LABEL: IC50 (µM)
Answers are plain numbers, in µM.

Quick request: IC50 for each listed item, please.
1. CC(C)N(C)[C@@H]1CC[C@H](N2CC[C@H](Nc3ncnc4ccc(C(F)(F)F)cc34)C2=O)[C@H](NC(=O)CCOCCOCCO[C@H]2CC[C@H](OCCNC(=O)[C@H]3CC(=O)N(C)[C@@H]3c3cccnc3)CC2)C1
2. CC(C)N(C)[C@@H]1CC[C@H](N2CC[C@H](Nc3ncnc4ccc(C(F)(F)F)cc34)C2=O)[C@H](NC(=O)[C@H]2C[C@H](NC(=O)CCOCCOCCOCCNC(=O)[C@H]3CC(=O)N(C)[C@@H]3c3cccnc3)C2)C1

Reply:
1: 74.3; 2: 93.7

---

tested on: endogenous target monocytes in human PBMC; assay: PBMC ex vivo monocyte depletion flow cytometry assay (Example 200); format: cell-based; conditions: with anti-cotinine antibody (SEQ ID NO: 11/12), 18-24 hours, EC50 in molar, read-out: Ex Vivo Depletion Assay pEC50 (converted)
READOUT LABEL: EC50 (µM)
Numbers only, in µM.

[
  {
    "COMPOUND": "CC(C)N(CCOCCOCCC(=O)N[C@H]1CC[C@@H](C(=O)N[C@@H]2C[C@H](N(C)C(C)C)CC[C@@H]2N2CC[C@H](Nc3ncnc4ccc(C(F)(F)F)cc34)C2=O)CC1)C(=O)CCCNC(=O)[C@H]1CC(=O)N(C)[C@@H]1c1cccnc1 [Example 177]",
    "EC50 / µM": 0.000251
  }
]

// next entry
Ask: What value of EC50 has been recorded for this entry: CC(C)N(C)[C@@H]1CC[C@H](N2CC[C@H](Nc3ncnc4ccc(C(F)(F)F)cc34)C2=O)[C@H](NC2CCC(C(=O)NCCOCCOCCNC(=O)[C@H]3CC(=O)N(C)[C@@H]3c3cccnc3)CC2)C1 (some centres unmarked) [Example 68]
Reply: 100

---

target: anti-cotinine antibody (SEQ ID NO: 11/12, rabbit variable region with human IgG1 Fc DE mutation); experiment: SPR binding of anti-cotinine antibody to ARM compounds, Biacore T200, 37° C. (Example 202); conditions: SPR Biacore T200, 37° C., pH 7.4, antibody SEQ ID NO: 11/12 captured on protein A; Kd in molar
Consider the following compounds; for each one, report its pKd of Antibody for ARM Compound of Formula (I).
Give bare numbers.

Sample answers from the record:
[
  {
    "RECORD SMILES": "CC(C)N(C)[C@@H]1CC[C@H](N2CC[C@H](Nc3ncnc4ccc(C(F)(F)F)cc34)C2=O)[C@H](NC(=O)CCNC2CCC3(CC2)CCN(CCCNC(=O)[C@H]2CC(=O)N(C)[C@@H]2c2cccnc2)CC3)C1",
    "OBSERVED RESULT": 9.0865
  },
  {
    "RECORD SMILES": "CC(C)N(C)[C@@H]1CC[C@H](N2CC[C@H](Nc3ncnc4ccc(C(F)(F)F)cc34)C2=O)[C@H](NC(=O)CCOCCC(=O)N[C@H]2C[C@H](C(=O)NCCOCCNC(=O)[C@H]3CC(=O)N(C)[C@@H]3c3cccnc3)C2)C1",
    "OBSERVED RESULT": 9.104
  },
  {
    "RECORD SMILES": "CC(C)N(C)[C@@H]1CC[C@H](N2CC[C@H](Nc3ncnc4ccc(C(F)(F)F)cc34)C2=O)[C@H](NC(=O)[C@H]2CC[C@@H](NC(=O)CCCO[C@H]3CC[C@H](OCCNC(=O)[C@H]4CC(=O)N(C)[C@@H]4c4cccnc4)CC3)CC2)C1",
    "OBSERVED RESULT": 9.19
  }
]

// next entry
Ask: What value of pKd of Antibody for ARM Compound of Formula (I) has been recorded for this entry: CC(C)N(C)[C@@H]1CC[C@H](N2CC[C@H](Nc3ncnc4ccc(C(F)(F)F)cc34)C2=O)[C@H](NC(=O)[C@H]2CC[C@@H](NC(=O)COCCNC(=O)COCCNC(=O)[C@H]3CC(=O)N(C)[C@@H]3c3cccnc3)CC2)C1
Reply: 9.062

---

target: human alpha1 nicotinic acetylcholine (nACh) receptor (Homo sapiens); assay: Nicotinic acetylcholine receptor antagonism assay, IONFlux automated patch clamp (Example 203); assay type: cell-based; settings: antagonism of ACh-stimulated human alpha1 nAChR current, patch clamp
READOUT LABEL: IC50 (µM)
Numbers only, in µM.

Ask: What value of IC50 has been recorded for this entry: CC(C)N(C)[C@@H]1CC[C@H](N2CC[C@H](Nc3ncnc4ccc(C(F)(F)F)cc34)C2=O)[C@H](NC(=O)CCNC(=O)CCCOC[C@H]2CC[C@@H](COCCNC(=O)[C@H]3CC(=O)N(C)[C@@H]3c3cccnc3)CC2)C1
Reply: 29

---

Consider the following compounds; for each one, report its concentration at 48 h.
test: Blood drug concentration analysis by LC-MS/MS after IV dosing with anti-cotinine antibody (Example 201); assay type: in vivo; conditions: C57 background, human CCR2 knock-in, mouse; hCCR2 knock-in mice, IV 0.1 mpk compound + 10 mpk anti-cotinine antibody, whole blood, 48 hours post-dose; read-out: Exposure of Compound of Formula (I) 48 hours post-dose
Numbers only, in ng/mL.

[
  {
    "RECORD SMILES": "CC(C)N(C)[C@@H]1CC[C@H](N2CC[C@H](Nc3ncnc4ccc(C(F)(F)F)cc34)C2=O)[C@H](NC(=O)[C@H]2CC[C@H](N3CCN(S(=O)(=O)C4CCN(C(=O)[C@H](C)NC(=O)[C@H]5CC(=O)N(C)[C@@H]5c5cccnc5)CC4)CC3)CC2)C1",
    "READOUT LABEL": "concentration at 48 h",
    "UNIT LABEL": "ng/mL",
    "OBSERVED RESULT": 2.3
  },
  {
    "RECORD SMILES": "CN1C(=O)C[C@H](C(=O)NCCOCCOCCOCCOCCOCCC(=O)N[C@@H]2C[C@H](NC(C)(C)C)CC[C@@H]2N2CC[C@H](Nc3ncnc4ccc(C(F)(F)F)cc34)C2=O)[C@H]1c1cccnc1",
    "READOUT LABEL": "concentration at 48 h",
    "UNIT LABEL": "ng/mL",
    "OBSERVED RESULT": 48.7
  },
  {
    "RECORD SMILES": "CN1C(=O)C[C@H](C(=O)NCCOCCNC(=O)[C@H]2C[C@H](NC(=O)CCOCCC(=O)N[C@@H]3C[C@H](NC(C)(C)C)CC[C@@H]3N3CC[C@H](Nc4ncnc5ccc(C(F)(F)F)cc45)C3=O)C2)[C@H]1c1cccnc1",
    "READOUT LABEL": "concentration at 48 h",
    "UNIT LABEL": "ng/mL",
    "OBSERVED RESULT": 73
  },
  {
    "RECORD SMILES": "CC(C)N(C)[C@@H]1CC[C@H](N2CC[C@H](Nc3ncnc4ccc(C(F)(F)F)cc34)C2=O)[C@H](NC2CCN(C(=O)CCOCCOCCOCCOCCNC(=O)[C@H]3CC(=O)N(C)[C@@H]3c3cccnc3)CC2)C1",
    "READOUT LABEL": "concentration at 48 h",
    "UNIT LABEL": "ng/mL",
    "OBSERVED RESULT": 39.9
  },
  {
    "RECORD SMILES": "CN1C(=O)C[C@H](C(=O)NCCOCCOCCOCCOCCOCCOCCC(=O)N[C@@H]2C[C@H](NC(C)(C)C)CC[C@@H]2N2CC[C@H](Nc3ncnc4ccc(C(F)(F)F)cc34)C2=O)[C@H]1c1cccnc1",
    "READOUT LABEL": "concentration at 48 h",
    "UNIT LABEL": "ng/mL",
    "OBSERVED RESULT": 47.6
  }
]

// next entry
Ask: What value of concentration at 48 h has been recorded for this entry: CC(C)N(C)[C@@H]1CC[C@H](N2CC[C@H](Nc3ncnc4ccc(C(F)(F)F)cc34)C2=O)[C@H](NC(=O)[C@H]2CC[C@@H](N3CCN(S(=O)(=O)C4CCN(C(=O)[C@H](C)NC(=O)[C@H]5CC(=O)N(C)[C@@H]5c5cccnc5)CC4)CC3)CC2)C1
Reply: 1

---

test system: endogenous target monocytes in human PBMC; assay: PBMC ex vivo monocyte depletion flow cytometry assay (Example 200); format: cell-based; details: with anti-cotinine antibody (SEQ ID NO: 11/12), 18-24 hours, EC50 in molar, read-out: Ex Vivo Depletion Assay pEC50 (converted)
Consider the following compounds; for each one, report its EC50.
Numbers only, in nM.

Sample answers from the record:
[
  {
    "COMPOUND": "CC(C)N(C)[C@@H]1CC[C@H](N2CC[C@H](Nc3ncnc4ccc(C(F)(F)F)cc34)C2=O)[C@H](NC(=O)[C@H]2CC[C@@H](NC(=O)COCCNC(=O)COCCNC(=O)[C@H]3CC(=O)N(C)[C@@H]3c3cccnc3)CC2)C1",
    "UNIT LABEL": "nM",
    "EC50": 0.794
  },
  {
    "COMPOUND": "CC(C)N(C)[C@@H]1CC[C@H](N2CC[C@H](Nc3ncnc4ccc(C(F)(F)F)cc34)C2=O)[C@H](NC(=O)[C@H]2CC[C@H](N3CCN(CCCCCCCCNC(=O)[C@H]4CC(=O)N(C)[C@@H]4c4cccnc4)CC3)CC2)C1",
    "UNIT LABEL": "nM",
    "EC50": 0.316
  },
  {
    "COMPOUND": "CC(C)N(C)[C@@H]1CC[C@H](N2CC[C@H](Nc3ncnc4ccc(C(F)(F)F)cc34)C2=O)[C@H](NC(=O)[C@H]2C[C@@H](NC(=O)CCOCCNC(=O)CCOCCNC(=O)[C@H]3CC(=O)N(C)[C@@H]3c3cccnc3)C2)C1",
    "UNIT LABEL": "nM",
    "EC50": 0.631
  },
  {
    "COMPOUND": "CC(C)N(C)[C@@H]1CC[C@H](N2CC[C@H](Nc3ncnc4ccc(C(F)(F)F)cc34)C2=O)[C@H](NC(=O)c2cnn(C3CCN(CCOCCOCCOCCNC(=O)[C@H]4CC(=O)N(C)[C@@H]4c4cccnc4)CC3)c2)C1",
    "UNIT LABEL": "nM",
    "EC50": 1.26
  },
  {
    "COMPOUND": "CC(C)N(C)[C@@H]1CC[C@H](N2CC[C@H](Nc3ncnc4ccc(C(F)(F)F)cc34)C2=O)[C@H](NC(=O)[C@H]2CC[C@@H](NC(=O)CCOCCNC(=O)CCCCNC(=O)[C@H]3CC(=O)N(C)[C@@H]3c3cccnc3)CC2)C1",
    "UNIT LABEL": "nM",
    "EC50": 0.501
  },
  {
    "COMPOUND": "CC(C)N(C)[C@@H]1CC[C@H](N2CC[C@H](Nc3ncnc4ccc(C(F)(F)F)cc34)C2=O)[C@H](NC(=O)[C@H]2CC[C@H](N3CCN(C4CC(CCNC(=O)[C@H]5CC(=O)N(C)[C@@H]5c5cccnc5)C4)CC3)CC2)C1 (some centres unmarked)",
    "UNIT LABEL": "nM",
    "EC50": 0.0631
  },
  {
    "COMPOUND": "CC(C)N(C)[C@@H]1CC[C@H](N2CC[C@H](Nc3ncnc4ccc(C(F)(F)F)cc34)C2=O)[C@H](NC(=O)CCc2ccc(C3CCN(C(=O)CCCCCNC(=O)[C@H]4CC(=O)N(C)[C@@H]4c4cccnc4)CC3)cc2)C1",
    "UNIT LABEL": "nM",
    "EC50": 0.158
  }
]

// next entry
Ask: Request: EC50, test system endogenous target monocytes in human PBMC, entry CC(C)N(C)[C@@H]1CC[C@H](N2CC[C@H](Nc3ncnc4ccc(C(F)(F)F)cc34)C2=O)[C@H](NC(=O)[C@H]2CC[C@H](CNC(=O)CCCC(=O)NCCCOCCCNC(=O)[C@H]3CC(=O)N(C)[C@@H]3c3cccnc3)CC2)C1
Reply: 0.316
